Source: paper PMC6212790

Target: GST-Rok (full length) (Bacillus subtilis subsp. subtilis str. …, UniProt O34857 1-191)
Sequence: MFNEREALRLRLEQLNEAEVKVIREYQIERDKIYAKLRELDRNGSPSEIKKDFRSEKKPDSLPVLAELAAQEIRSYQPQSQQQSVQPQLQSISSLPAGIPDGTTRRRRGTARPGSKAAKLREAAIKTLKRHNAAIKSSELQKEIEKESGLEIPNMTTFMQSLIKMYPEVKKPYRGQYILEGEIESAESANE
Experiment: protein binding microarray; high values mean tight binding
Conditions: protein: recombinant; tags: GST (pTH5325, pDEST15-Magic modified); dsDNA, one strand shown
Over roughly 33,000 sequences, “e-score” has its median near -0.037; the highest 2% begin near 0.34. This is one part of a sample in which the highest values are shown more often than they occur.
parameter measured: binding signal (E-score)
Enter your answer as a number in E-score; do not include the unit.

Worked examples, 6 sequences total:
>>> observed("CTAAGCCA")
0.0287
>>> observed("AAATAGCT")
0.379
>>> observed("ACCGTCGA")
0.0177
>>> observed("GAAGCAAC")
0.0226
>>> observed("CGGTAATA")
0.372
>>> observed("TCTATTCA")
0.0926

Proceed to the following item.
Give a short answer stating reported binding signal for CAATAGTG . 0.287

###

Measured binding signal accompanies every entry in the list below.
Biological target: GST-Rok (full length) (Bacillus subtilis subsp. subtilis str. …, UniProt O34857 1-191)
Sequence: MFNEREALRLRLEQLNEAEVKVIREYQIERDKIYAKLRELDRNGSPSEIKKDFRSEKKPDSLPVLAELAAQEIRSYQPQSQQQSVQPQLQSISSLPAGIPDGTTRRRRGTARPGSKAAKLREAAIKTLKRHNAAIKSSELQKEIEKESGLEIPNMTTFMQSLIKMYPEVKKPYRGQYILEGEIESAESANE
Experiment: protein binding microarray; high values mean tight binding
Settings: protein: recombinant; tags: GST (pTH5325, pDEST15-Magic modified); dsDNA, one strand shown
The full ranking holds about 33,000 sequences; the median of “e-score” is about -0.037, and the highest 2% start at about 0.34. What follows is part of a selection rich in the highest values, with near analogues and random picks from the rest.
Enter your answer as a number in E-score; do not include the unit.

>>> observed("AACGTTAG")
0.344
>>> observed("CATGATCC")
0.0194
>>> observed("AATTTTAT")
0.273
>>> observed("ATAGTAAG")
0.282
>>> observed("CTAGTAAC")
0.303
>>> observed("AATCTATC")
0.377

Give a short answer stating reported binding signal for TAATTCTA . 0.345

Give a short answer stating reported binding signal for ATTAATCA . 0.232

Give a short answer stating reported binding signal for ATAAAATG . 0.203

###

Measured binding signal accompanies every entry in the list below.
Biological target: GST-Rok (full length) (Bacillus subtilis subsp. subtilis str. …, UniProt O34857 1-191)
Sequence: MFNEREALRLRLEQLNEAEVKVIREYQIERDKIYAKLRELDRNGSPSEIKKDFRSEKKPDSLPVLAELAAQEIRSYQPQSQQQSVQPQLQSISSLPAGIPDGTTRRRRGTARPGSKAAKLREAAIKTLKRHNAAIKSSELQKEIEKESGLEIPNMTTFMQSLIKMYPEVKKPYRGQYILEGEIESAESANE
Assay: protein binding microarray; high values mean tight binding
Conditions: protein: recombinant; tags: GST (pTH5325, pDEST15-Magic modified); dsDNA, one strand shown
Whole data set: some 33,000 sequences, median “e-score” near -0.037, cut for the highest 2% near 0.34. The entries come from a sample that favours the highest values as a whole.
Units required after the number.

>>> observed("AGATTAAG")
"0.135 E-score"
>>> observed("ATACAATG")
"0.254 E-score"
>>> observed("CTATTAAA")
"0.116 E-score"
>>> observed("ACTCACTA")
"0.177 E-score"

Find the measured binding signal of ATACAATA with GST-Rok (full length) (Bacillus subtilis subsp. subtilis str. …, UniProt O34857 1-191) as test system. 0.359 E-score

Find the measured binding signal of AGATTAAT with GST-Rok (full length) (Bacillus subtilis subsp. subtilis str. …, UniProt O34857 1-191) as test system. 0.346 E-score

Find the measured binding signal of ACGGTCTG with GST-Rok (full length) (Bacillus subtilis subsp. subtilis str. …, UniProt O34857 1-191) as test system. -0.0535 E-score

Find the measured binding signal of ATATTAAT with GST-Rok (full length) (Bacillus subtilis subsp. subtilis str. …, UniProt O34857 1-191) as test system. 0.345 E-score

Find the measured binding signal of ATATTAAC with GST-Rok (full length) (Bacillus subtilis subsp. subtilis str. …, UniProt O34857 1-191) as test system. 0.298 E-score

Find the measured binding signal of AATTCCGT with GST-Rok (full length) (Bacillus subtilis subsp. subtilis str. …, UniProt O34857 1-191) as test system. -0.114 E-score

Find the measured binding signal of AGATATAA with GST-Rok (full length) (Bacillus subtilis subsp. subtilis str. …, UniProt O34857 1-191) as test system. 0.183 E-score

###

Target: GST-Rok (full length) (Bacillus subtilis subsp. subtilis str. …, UniProt O34857 1-191)
Sequence: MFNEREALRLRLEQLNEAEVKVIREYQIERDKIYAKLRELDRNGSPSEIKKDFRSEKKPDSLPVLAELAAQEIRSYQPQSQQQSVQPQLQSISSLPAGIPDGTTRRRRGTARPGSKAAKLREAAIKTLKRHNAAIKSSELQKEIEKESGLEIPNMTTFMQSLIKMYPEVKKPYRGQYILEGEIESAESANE
Assay: protein binding microarray; high values mean tight binding
Settings: protein: recombinant; tags: GST (pTH5325, pDEST15-Magic modified); dsDNA, one strand shown
Whole data set: some 33,000 sequences, median “e-score” near -0.037, cut for the highest 2% near 0.34. The full list was thinned out, with the highest values kept by preference.
parameter measured: binding signal (E-score)
Enter your answer as a number in E-score; do not include the unit.

Worked examples, 5 sequences total:
>>> observed("CATACTTC")
0.191
>>> observed("AGTTTCTA")
0.402
>>> observed("AGTGTTAG")
0.118
>>> observed("CAACCGGC")
-0.0977
>>> observed("TATTGCAA")
0.253

Give a short answer stating reported binding signal for ATATAGCG . 0.349

Give a short answer stating reported binding signal for AGATAAGG . 0.0533

Give a short answer stating reported binding signal for CAGTGCGG . -0.0903

Give a short answer stating reported binding signal for GTTTAGTA . 0.272

Give a short answer stating reported binding signal for GGTTTCTA . 0.334

Give a short answer stating reported binding signal for ATATATAG . 0.416

Give a short answer stating reported binding signal for AATACTGT . 0.171

Give a short answer stating reported binding signal for AAAAGCGC . -0.0281

###

Measured binding signal accompanies every entry in the list below.
Biological target: GST-Rok (full length) (Bacillus subtilis subsp. subtilis str. …, UniProt O34857 1-191)
Sequence: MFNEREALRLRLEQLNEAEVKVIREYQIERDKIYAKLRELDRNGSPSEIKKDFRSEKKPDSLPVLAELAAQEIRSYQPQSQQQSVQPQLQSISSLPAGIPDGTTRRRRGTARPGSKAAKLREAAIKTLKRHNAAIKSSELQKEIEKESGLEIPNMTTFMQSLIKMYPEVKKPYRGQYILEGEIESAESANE
Experiment: protein binding microarray; Rok is a gene silencer of Bacillus subtilis; high values mean tight binding
Settings: protein: recombinant; tags: GST (pTH5325, pDEST15-Magic modified); dsDNA, one strand shown
In all, about 33,000 sequences were measured (“e-score”: median about -0.037, highest 2% from about 0.34 on). The full list was thinned out, with the highest values kept by preference.

Worked examples, 2 sequences total:
>>> observed("CATACAAA")
"0.288 E-score"
>>> observed("CATACATC")
"0.158 E-score"

Give a short answer stating reported binding signal for CGATTATA . 0.215 E-score

Give a short answer stating reported binding signal for CCTGTAGA . 0.0279 E-score

Give a short answer stating reported binding signal for TATACAAA . 0.402 E-score

Give a short answer stating reported binding signal for AGCACATG . -0.117 E-score

Give a short answer stating reported binding signal for ATGTTATA . 0.35 E-score

Give a short answer stating reported binding signal for AGTACAAA . 0.343 E-score

Give a short answer stating reported binding signal for AATACAAA . 0.206 E-score

Give a short answer stating reported binding signal for TCTATAAA . 0.186 E-score
